Values compiled from patent US12714696B2.

test_method_notes: Pharmacokinetics after repeated oral administration of 250 μg/kg and 35 μg/kg of fluralaner in dogs after feeding
Assay type: in vivo, beagle dogs
particulars: beagle, dog, plasma, po, 720 h; oral 250/35/600 μg/kg regimen, dogs, n=6; read-out: fluralaner concentration levels, Minimum
recorded_endpoint: concentration at 720 h (ng/mL)

>>> value_observed("Cc1cc(C2=NOC(c3cc(Cl)cc(Cl)c3)(C(F)(F)F)C2)ccc1C(=O)NCC(=O)NCC(F)(F)F (stereo not shown)")
187

* * *

test_method_notes: Pharmacokinetics after repeated oral administration of 250 μg/kg and 35 μg/kg of fluralaner in dogs after feeding
Type: in vivo, beagle dogs
particulars: beagle, dog, plasma, po, 120 h; oral 250/35/600 μg/kg regimen, dogs, n=6; read-out: fluralaner concentration levels, Minimum
recorded_endpoint: concentration at 120 h (ng/mL)

>>> value_observed("Cc1cc(C2=NOC(c3cc(Cl)cc(Cl)c3)(C(F)(F)F)C2)ccc1C(=O)NCC(=O)NCC(F)(F)F (stereo not shown)")
465

* * *

test_method_notes: Pharmacokinetics after repeated oral administration of 35 μg/kg of fluralaner in dogs after feeding
Type: in vivo, beagle dogs
particulars: beagle, dog, plasma, po, 35 ug/kg, oral 35 μg/kg Days 0-3, dogs, n=6; read-out: AUC 0-inf, Median
Protocol: The first objective of the study was to obtain the pharmacokinetic parameters after repeated oral administration of 35 μg/kg of fluralaner in dogs, 30 to 35 minutes after feeding. […] On Days 0, 1, 2 and 3, all dogs assigned to group 2 received the Investigational Veterinary Product. […] The quantity of Investigational Veterinary Product and control product administered was calculated according to the dog's individual body weight measured on Day −1. […]
recorded_endpoint: AUC(0-inf) (ng·h/mL)

>>> value_observed("Cc1cc(C2=NOC(c3cc(Cl)cc(Cl)c3)(C(F)(F)F)C2)ccc1C(=O)NCC(=O)NCC(F)(F)F (stereo not shown) [fluralaner, Fluralaner]")
28300

* * *

test_method_notes: Pharmacokinetics after repeated oral administration of 35 μg/kg of fluralaner in dogs after feeding
Assay type: in vivo, beagle dogs
particulars: beagle, dog, plasma, po, 35 μg/kg, 120 h; oral 35 μg/kg Days 0-3, dogs, n=6; read-out: fluralaner concentration levels, Minimum
recorded_endpoint: concentration at 120 h (ng/mL)

>>> value_observed("Cc1cc(C2=NOC(c3cc(Cl)cc(Cl)c3)(C(F)(F)F)C2)ccc1C(=O)NCC(=O)NCC(F)(F)F (stereo not shown)")
55.6

* * *

test_method_notes: Pharmacokinetics after repeated oral administration of 35 μg/kg of fluralaner in dogs after feeding
Type: in vivo, beagle dogs
particulars: oral 35 μg/kg Days 0-3, dogs, n=6
recorded_endpoint: Lambda z, Mean (h⁻¹)

>>> value_observed("Cc1cc(C2=NOC(c3cc(Cl)cc(Cl)c3)(C(F)(F)F)C2)ccc1C(=O)NCC(=O)NCC(F)(F)F (stereo not shown)")
0.00329
